Assignment: determine reported nuclei count for the given compounds.
TEST_DETAILS: endothelial E-selectin expression blockers – imaging, HUVEC, immunofluorescence, MLSMR starter and 10KST1 sets, primary screen (AID 487);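 also: 100% = median nuclei count of all wells on the same plate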
EXPERIMENTAL_PARAMETERS: HUVEC TNFalpha-induced E-selectin immunofluorescence imaging, at 2 µM; measured here: cell number, toxicity
Answers are plain numbers, in %.

Guide cases for nuclei count, answers given:
Cc1ccccc1OCCn1c(=O)oc2ccccc21 : 128
Cc1ccc(CCNC(=O)CC2Oc3ccc(C)cc3NC2=O)cc1 (centres undefined) : 124
COc1cccc(C(=O)NCc2nnc(SCC(=O)Nc3nccs3)n2-c2ccccc2)c1 : 107

Look up nuclei count for the entries below, preserving their order.
1. Cc1cc(C)cc(-n2nnc(C(=O)NCc3ccco3)c2N)c1
2. CC1=C(C)[N+](=O)C2CCCCC2N1[O-] (centres undefined)
3. CN1CCN(CC(=O)N2c3ccccc3C(C)(c3ccccc3)CC2(C)C)CC1 (centres undefined)
4. C=CCSc1n[nH]c(-c2ccc(OC)cc2)n1
5. CCN1C(=O)c2cccc3c(NC(=O)c4ccc5c(c4)OCCO5)ccc1c23
6. COc1cccc(-c2nc(CS(=O)(=O)CC(=O)N3CCN(c4ccccn4)CC3)c(C)o2)c1
7. Cc1ccccc1C(=O)NC1CCN(Cc2nnnn2CCc2ccccc2)CC1
8. Cc1cc(C(=O)Nc2nc3c(s2)CCCC3)cs1

[107, 86.5, 146, 103, 90.9, 114, 102, 107]

Look up nuclei count for the entries below, preserving their order.
1. O=C(CCCCCN1C(=O)CCC1=O)NCc1ccccc1
2. COc1ccccc1N1C(=O)CC(Sc2nc(C)cc(C)n2)C1=O (centres undefined)
3. NC(=O)c1c(NC(=O)CN2CCCC2)sc2c1CCCC2
4. COc1cccc(C2=NOC(C(=O)N3CCc4ccccc4C3)C2)c1 (centres undefined)
5. NC(=O)COC(=O)CNC(=O)c1ccc(Cl)cc1

[105, 90.9, 84.6, 107, 111]

====

Assignment: determine reported inhibition for the given molecules.
TEST_DETAILS: TLR3 IRF3 reporter activation blockers – cell-based, poly I:C stimulus, luciferase, 10K MLSCN set, primary screen (AID 602277)
EXPERIMENTAL_PARAMETERS: HEK293-TLR3 RL24 IRF3 luciferase reporter, at 10 µM, stronger effect = higher value
The source made the active and inactive calls.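 Rule for the calls: active = inhibition of the reporter signal at or above 50%; inactive = inhibition below 50%.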

Cc1ccc(-c2nnc(SCC(=O)N3c4ccccc4NC(=O)C3(C)C)n2N)cc1 : -5.26% (inactive)
CC(=O)NCCc1nc2ccccc2[nH]1 : 33.6% (inactive)
O=C(C(c1ccccc1)c1ccccc1)N1CCN(Cc2ccccn2)CC1 : 18.2% (inactive)
CN(C)c1ccc(NC(=O)Cn2cc3c(n2)CCCC3)cc1 : -8.59% (inactive)
O=C(CCN1C(=O)C2C3C=CC(C3)C2C1=O)Nc1c(F)cc(F)cc1Br (stereo unspecified) : 11.7% (inactive)

Look up inhibition for the entries below, preserving their order.
1. Cn1c(=O)c(=O)n(C)c2cc(S(=O)(=O)N3CCN(c4cccc(C(F)(F)F)c4)CC3)ccc21
2. Cc1cccc(C(=O)N2CCC(n3nnc4cc(F)ccc43)CC2)c1
3. C=CCSc1nc(N)c(C(=O)Nc2ccccc2C)cc1C(N)=O
4. CC(=O)NC(CCS(C)(=O)=O)C(=O)Nc1cccc(C)c1C (stereo unspecified)
5. CC(C)C(=O)Nc1ccc2c(c1)nc1n2CCSC1
6. COc1ccc2[nH]c(=O)c(CN(Cc3cccs3)S(=O)(=O)c3cccc4nsnc34)cc2c1

13.1% (inactive)
6.27% (inactive)
24.2% (inactive)
38.7% (inactive)
-20.2% (inactive)
71.5% (active)

Data origin, for the record: PubChem BioAssay
